Assignment: determine reported TF-1 NF-κB reporter cell bioassay IC50 for the given binders.
Target: T1, recombinant human TL1A (human, UniProt O95150 71-251)
T1 chain: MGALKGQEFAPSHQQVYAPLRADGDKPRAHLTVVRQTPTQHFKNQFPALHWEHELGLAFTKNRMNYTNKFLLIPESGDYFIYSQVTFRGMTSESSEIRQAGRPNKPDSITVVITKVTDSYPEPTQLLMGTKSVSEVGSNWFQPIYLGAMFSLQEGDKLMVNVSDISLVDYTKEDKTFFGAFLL
Assay: cell-based or functional assay
Give bare numbers, in nM.

TL1A-0288 (antibody, human IgG1, kappa, V domains shown, human IgG1 effector-function-minimized/kappa; 96 used) VH: QVQLVQSGAEVKKPGASVKVSCKASGYDFTYYGVSWVRQAPGQGLEWMGWISTYNTGTHYAPSLQGRVTMTTDTSTSTAYMELRSLRSDDTAVYYCARESYYGSGAFRGGMDVWGQGTTVTVSS VL: DIQMTQSPSSLSASVGDRVTITCRASQSVSSYLAWYQQKPGKAPKLLIYDASNRATGVPSRFSGSGSGTDFTLTISSLQPEDFATYYCQQRSNWPWTFGQGTKVEIKR
96

Value sought for every listed binder: TF-1 NF-κB reporter cell bioassay IC50.
1. TL1A-0266 (antibody, human IgG1, kappa, V domains shown, human IgG1 effector-function-minimized/kappa) VH: QVQLVQSGAEVKKPGASVKVSCKASGYDYTYYGISWVRQAPGQGLEWMGWISTYNTNTHYAPSLQGRVTMTTDTSTSTAYMELRSLRSDDTAVYYCARESYYGSGAFRGGMDVWGQGTTVTVSS VL: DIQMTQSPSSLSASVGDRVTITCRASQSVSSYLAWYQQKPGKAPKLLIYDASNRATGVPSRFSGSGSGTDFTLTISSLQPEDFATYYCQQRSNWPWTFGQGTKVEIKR
2. TL1A-0263 (antibody, human IgG1, kappa, V domains shown, human IgG1 effector-function-minimized/kappa) VH: QVQLVQSGAEVKKPGASVKVSCKASGYDYTYYGISWVRQAPGQGLEWMGWISTYNTGTHYAQKLQGRVTMTTDTSTSTAYMELRSLRSDDTAVYYCARESYYGSGAHRGGMDVWGQGTTVTVSS VL: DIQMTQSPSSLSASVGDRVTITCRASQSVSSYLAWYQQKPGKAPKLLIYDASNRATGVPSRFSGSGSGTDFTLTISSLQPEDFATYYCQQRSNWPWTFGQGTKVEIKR
3. TL1A-0274 (antibody, human IgG1, kappa, V domains shown, human IgG1 effector-function-minimized/kappa) VH: QVQLVQSGAEVKKPGASVKVSCKASGYDFSYYGISWVRQAPGQGLEWMGWISTYNTGTHYAPSLQGRVTMTTDTSTSTAYMELRSLRSDDTAVYYCARESYYGSGAFRGGMDVWGQGTTVTVSS VL: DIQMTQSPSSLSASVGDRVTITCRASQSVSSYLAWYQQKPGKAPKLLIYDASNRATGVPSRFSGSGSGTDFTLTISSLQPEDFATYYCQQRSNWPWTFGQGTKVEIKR
4. TL1A-0261 (antibody, human IgG1, kappa, V domains shown, human IgG1 effector-function-minimized/kappa) VH: QVQLVQSGAEVKKPGASVKVSCKASGYDYTYYGISWVRQAPGQGLEWMGWISTYNTGTHYAPSLQGRVTMTTDTSTSTAYMELRSLRSDDTAVYYCARESYYGSGAHRGGMDVWGQGTTVTVSS VL: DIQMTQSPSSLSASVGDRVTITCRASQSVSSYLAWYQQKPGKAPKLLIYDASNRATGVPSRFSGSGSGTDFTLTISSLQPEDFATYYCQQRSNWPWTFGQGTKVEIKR

[reply]
1: 37; 2: 40.4; 3: 19.1; 4: 29.5
